Reference source for all entries: patent EP4714952A1

- ASSAY_SYSTEM: CYP2C9 (Homo sapiens, UniProt P11712)
- Sequence (P11712 whole entry): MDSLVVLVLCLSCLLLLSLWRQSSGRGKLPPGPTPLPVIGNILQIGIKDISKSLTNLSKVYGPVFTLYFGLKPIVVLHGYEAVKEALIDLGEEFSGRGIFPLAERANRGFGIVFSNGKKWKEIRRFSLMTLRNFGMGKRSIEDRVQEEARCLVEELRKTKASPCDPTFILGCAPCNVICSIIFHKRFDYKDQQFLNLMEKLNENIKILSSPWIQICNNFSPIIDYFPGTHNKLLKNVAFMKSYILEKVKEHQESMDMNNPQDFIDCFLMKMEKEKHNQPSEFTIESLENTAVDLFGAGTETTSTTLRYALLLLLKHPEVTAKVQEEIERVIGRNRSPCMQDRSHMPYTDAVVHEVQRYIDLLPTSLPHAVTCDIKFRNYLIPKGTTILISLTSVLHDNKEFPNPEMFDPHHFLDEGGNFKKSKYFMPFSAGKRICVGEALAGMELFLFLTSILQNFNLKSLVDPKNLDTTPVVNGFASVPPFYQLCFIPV
Lab note: anything with IC50 below 8 µM is marked criterion met; values at 8 µM or higher are marked criterion not met.

These recorded examples may help you get a feel for the data.
COMPOUND | CLASS_NAME
CCOc1cc2c(cc1OC)-c1cc(N(CCO)c3c(C)cc(C)cc3C)nc(=O)n1CC2 | criterion not met
CCOc1cc2c(cc1OC)-c1cc(N(CCC(=O)NCCO)c3c(C)cc(C)cc3C)nc(=O)n1CC2 | criterion not met
CCOc1cc2c(cc1OC)-c1cc(N(CCC(=O)O)c3c(C)cc(C)cc3C)nc(=O)n1CC2 | criterion not met
CCOc1cc2c(cc1OC)-c1cc(N(CCCO)c3c(C)cc(C)cc3C)nc(=O)n1CC2 | criterion met
CCOc1cc2c(cc1OC)-c1cc(N(CCNC(N)=O)c3c(C)cc(C)cc3C)nc(=O)n1CC2 | criterion met
COc1cc2c(cc1OC)-c1c/c(=N\c3c(C)cc(C)cc3C)n(CCNC(N)=O)c(=O)n1CC2 [Ensifentrine, reference compound] | criterion met
CCOc1cc2c(cc1OC)-c1cc(N(c3c(C)cc(C)cc3C)C(CO)CO)nc(=O)n1CC2 | criterion not met

Shifting focus to the compound that follows.
I'd appreciate it if you could check whether CCOc1cc2c(cc1OC)-c1cc(N(CCNC(=O)NOC)c3c(C)cc(C)cc3C)nc(=O)n1CC2 has IC50 smaller than 8 µM. criterion met

* * *

- ASSAY_SYSTEM: PDE4B1 (Homo sapiens, UniProt Q07343)
- Construct: purchased Sigma
- Sequence (Q07343 whole entry): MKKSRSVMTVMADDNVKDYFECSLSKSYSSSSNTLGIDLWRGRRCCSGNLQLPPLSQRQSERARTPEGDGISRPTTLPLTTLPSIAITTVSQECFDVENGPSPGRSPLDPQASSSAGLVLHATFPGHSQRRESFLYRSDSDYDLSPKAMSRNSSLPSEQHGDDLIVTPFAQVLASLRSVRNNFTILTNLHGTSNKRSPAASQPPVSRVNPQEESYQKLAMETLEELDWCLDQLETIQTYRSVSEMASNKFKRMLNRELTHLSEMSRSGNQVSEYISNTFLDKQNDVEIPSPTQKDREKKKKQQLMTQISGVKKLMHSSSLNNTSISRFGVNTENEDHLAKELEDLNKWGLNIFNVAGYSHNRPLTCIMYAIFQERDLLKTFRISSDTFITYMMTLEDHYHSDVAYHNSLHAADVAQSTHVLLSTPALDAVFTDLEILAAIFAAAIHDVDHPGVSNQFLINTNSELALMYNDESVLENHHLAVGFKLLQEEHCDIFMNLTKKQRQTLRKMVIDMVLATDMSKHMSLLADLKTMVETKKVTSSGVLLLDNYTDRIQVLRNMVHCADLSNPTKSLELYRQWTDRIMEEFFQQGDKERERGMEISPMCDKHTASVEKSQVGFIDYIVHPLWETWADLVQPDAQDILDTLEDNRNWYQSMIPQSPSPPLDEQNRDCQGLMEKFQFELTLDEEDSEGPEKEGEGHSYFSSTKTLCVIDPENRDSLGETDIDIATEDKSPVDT
- EXPERIMENT: In vitro inhibitory effect on PDE4B1 enzyme (AMP-Glo assay)
- Type: biochemical
molecules and their reported pIC50
Quick note: pIC50 values are minus log10 of concentrations in mol/L.

# count of solved cases: 3
SMILES_REPRESENTATION | RECORDED_MEASUREMENT
COc1cc2c(cc1OC)-c1cc(=Nc3c(C)cc(C)cc3C)n(CCNC(=O)N3CCn4c(nnc4C(F)(F)F)C3)c(=O)n1CC2 | 5.42
CCOc1cc2c(cc1OC)-c1cc(=Nc3c(C)cc(C)cc3C)n(CCNC(=O)c3c(O)nnn3C)c(=O)n1CC2 | 7.89
CCOc1cc2c(cc1OC)-c1cc(=Nc3c(C)cc(C)cc3C)n(CCNC(=O)NOC)c(=O)n1CC2 | 7.39

Given the entry CCOc1cc2c(cc1OC)-c1cc(N(CCNC(=O)c3c(O)nnn3C)c3c(C)cc(C)cc3C)nc(=O)n1CC2 , report its measured pIC50. 7.87

* * *

- ASSAY_SYSTEM: PDE4B1 (Homo sapiens, UniProt Q07343)
- Construct: purchased Sigma
- EXPERIMENT: In vitro inhibitory effect on PDE4B1 enzyme (AMP-Glo assay)
- Format: biochemical
- MEASUREMENT_SETUP: AMP-Glo Assay Kit, substrate cAMP, 23°C, 10 minutes; read-out: PDE4B1 (IC50)
- Experimental: 1. Table 1 Main reagents and consumables for in vitro detection of inhibitory effect 2. Preparation of experimental buffers Reaction buffer (5×): 50 mM Tris-HCl (buffer), 50 mM MgCl2, 0.5% BSA, 0.25% Tween-20, pH 7.4, stored at -20°C. 3. […] After centrifugation and sealing, the plate was incubated in the incubator at 23°C for 60 minutes. • 7) The readout was recorded using a multimode microplate reader. […]
ASSAY_ENDPOINT: pIC50
Quick note: pIC50 values are minus log10 of concentrations in mol/L.

COMPOUND | ASSAY_ENDPOINT | RECORDED_MEASUREMENT
CCOc1cc2c(cc1OC)-c1cc(N(CCN3CCS(=O)(=O)CC3)c3c(C)cc(C)cc3C)nc(=O)n1CC2 | pIC50 | 8.30

Given the entry CCOc1cc2c(cc1OC)-c1cc(N(CCNC(=O)NOC)c3c(C)cc(C)cc3C)nc(=O)n1CC2 , report its measured pIC50. 8.10

Given the entry COc1cc2c(cc1OC)-c1cc(N(c3c(C)cc(C)cc3C)C3CN(C(=O)c4ncon4)C3)nc(=O)n1CC2 , report its measured pIC50. 5.84

Given the entry CCOc1cc2c(cc1OC)-c1cc(N(CCN3CC(F)C3)c3c(C)cc(C)cc3C)nc(=O)n1CC2 , report its measured pIC50. 8.09

Given the entry CCOc1cc2c(cc1OC)-c1cc(N(CCN3CCN(C(C)=O)CC3)c3c(C)cc(C)cc3C)nc(=O)n1CC2 , report its measured pIC50. 7.88

Given the entry CCOc1cc2c(cc1OC)-c1cc(N(CCNC(=O)c3ccccn3)c3c(C)cc(C)cc3C)nc(=O)n1CC2 , report its measured pIC50. 8.92

Given the entry CCOc1cc2c(cc1OC)-c1cc(N(CCNC(=O)c3ccno3)c3c(C)cc(C)cc3C)nc(=O)n1CC2 , report its measured pIC50. 8.59

Given the entry CCOc1cc2c(cc1OC)-c1cc(N(CCCN)c3c(C)cc(C)cc3C)nc(=O)n1CC2 , report its measured pIC50. 7.19

Given the entry COc1cc2c(cc1OC)-c1cc(N(CCC(C)(C)O)c3c(C)cc(C)cc3C)nc(=O)n1CC2 , report its measured pIC50. 6.67

Given the entry CCOc1cc2c(cc1OC)-c1cc(N(CCNC(=O)c3nnc(C)o3)c3c(C)cc(C)cc3C)nc(=O)n1CC2 , report its measured pIC50. 7.97

Given the entry CCOc1cc2c(cc1OC)-c1cc(N(c3c(C)cc(C)cc3C)C3CN(C(=O)c4[nH]nnc4C)C3)nc(=O)n1CC2 , report its measured pIC50. 5.17

Given the entry CCOc1cc2c(cc1OC)-c1cc(=Nc3c(C)cc(C)cc3C)n(CCC(N)C(F)(F)F)c(=O)n1CC2 (stereo not drawn) , report its measured pIC50. 5.54

Given the entry COc1cc2c(cc1OC)-c1cc(N(CCC(O)CO)c3c(C)cc(C)cc3C)nc(=O)n1CC2 (stereo not drawn) , report its measured pIC50. 6.92

Given the entry COc1cc2c(cc1OCC1CC1)CCn1c-2cc(=Nc2c(C)cc(C)cc2C)n(CCNC(=O)c2c(O)nnn2C)c1=O , report its measured pIC50. 6.04

Given the entry CCOc1cc2c(cc1OC)-c1cc(=Nc3c(C)cc(C)cc3C)n(CCC(C)(C)O)c(=O)n1CC2 , report its measured pIC50. 6.16

* * *

Here's what we have: IC50 numbers for CYP2D6 (Homo sapiens, UniProt P10635).

# count of solved cases: 3
SMILES_REPRESENTATION | IC50
CCOc1cc2c(cc1OC)-c1cc(N(CCO)c3c(C)cc(C)cc3C)nc(=O)n1CC2 | > 50 µM
CCOc1cc2c(cc1OC)-c1cc(N(CCNC(=O)NOC)c3c(C)cc(C)cc3C)nc(=O)n1CC2 | 29.7 µM
CCOc1cc2c(cc1OC)-c1cc(N(CCNC(N)=O)c3c(C)cc(C)cc3C)nc(=O)n1CC2 | > 50 µM

Proceeding to the next compound to report its IC50.
Given the entry CCOc1cc2c(cc1OC)-c1cc(N(CCC(=O)NCCO)c3c(C)cc(C)cc3C)nc(=O)n1CC2 , report its measured IC50. > 50 µM

* * *

molecules and their reported log10 of IC50
- ASSAY_SYSTEM: PDE3A (Homo sapiens)
- Construct: purchased BPS
- EXPERIMENT: In vitro inhibitory effect on PDE3A enzyme (AMP-Glo assay)
- Assay type: biochemical
Kindly note that the scale is log10 and the underlying IC50 is in nM.

Given the entry COc1cc2c(cc1OC)-c1cc(=Nc3c(C)cc(C)cc3C)n(CCNC(=O)NCCN3CCOCC3)c(=O)n1CC2 , report its measured log10 of IC50. 0.21

Given the entry COc1cc2c(cc1OC1CCN(C)C1)CCn1c-2cc(=Nc2c(C)cc(C)cc2C)n(CCNC(N)=O)c1=O (centres unmarked) , report its measured log10 of IC50. 1.78

Given the entry COc1cc2c(cc1OC)-c1cc(N(CCNC(=O)c3cccn(C)c3=O)c3c(C)cc(C)cc3C)nc(=O)n1CC2 , report its measured log10 of IC50. -1.09

* * *

- ASSAY_SYSTEM: PDE3A (Homo sapiens, UniProt Q14432)
- Construct: purchased BPS
- Sequence (Q14432 whole entry): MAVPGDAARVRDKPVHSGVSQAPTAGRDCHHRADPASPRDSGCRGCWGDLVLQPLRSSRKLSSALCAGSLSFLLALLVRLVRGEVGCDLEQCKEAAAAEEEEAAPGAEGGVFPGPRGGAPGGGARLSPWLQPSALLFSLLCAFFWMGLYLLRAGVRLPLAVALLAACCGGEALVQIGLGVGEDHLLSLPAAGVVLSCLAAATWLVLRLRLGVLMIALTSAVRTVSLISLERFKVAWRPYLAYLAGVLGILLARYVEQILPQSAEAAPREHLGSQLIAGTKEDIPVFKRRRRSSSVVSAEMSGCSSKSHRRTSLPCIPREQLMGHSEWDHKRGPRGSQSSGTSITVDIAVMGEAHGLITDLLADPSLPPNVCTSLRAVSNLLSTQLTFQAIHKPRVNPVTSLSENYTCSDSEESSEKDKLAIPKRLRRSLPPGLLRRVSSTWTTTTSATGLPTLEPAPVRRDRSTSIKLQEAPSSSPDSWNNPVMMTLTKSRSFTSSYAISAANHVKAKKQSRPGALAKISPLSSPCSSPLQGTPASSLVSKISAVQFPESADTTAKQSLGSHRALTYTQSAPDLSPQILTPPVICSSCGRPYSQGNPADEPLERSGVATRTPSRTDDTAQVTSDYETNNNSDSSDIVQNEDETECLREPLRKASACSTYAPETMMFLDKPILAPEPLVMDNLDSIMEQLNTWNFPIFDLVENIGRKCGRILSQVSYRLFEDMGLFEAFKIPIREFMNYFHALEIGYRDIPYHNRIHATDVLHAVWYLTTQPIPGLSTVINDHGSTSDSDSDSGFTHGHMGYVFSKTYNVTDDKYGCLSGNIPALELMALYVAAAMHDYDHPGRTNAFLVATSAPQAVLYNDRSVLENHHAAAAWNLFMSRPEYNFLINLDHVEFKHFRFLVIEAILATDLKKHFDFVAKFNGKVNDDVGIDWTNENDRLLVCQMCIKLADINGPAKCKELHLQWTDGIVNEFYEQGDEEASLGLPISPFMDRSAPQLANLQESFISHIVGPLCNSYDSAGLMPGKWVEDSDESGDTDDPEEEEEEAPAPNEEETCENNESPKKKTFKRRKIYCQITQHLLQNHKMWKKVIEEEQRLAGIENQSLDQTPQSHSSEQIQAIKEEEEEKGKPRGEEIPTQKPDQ
- EXPERIMENT: In vitro inhibitory effect on PDE3A enzyme (AMP-Glo assay)
- Assay type: biochemical
compounds and their reported log10 IC50
Kindly note that the scale is log10 and the underlying IC50 is in nM.

COMPOUND | ASSAY_ENDPOINT | RECORDED_MEASUREMENT
CCOc1cc2c(cc1OC)-c1cc(=Nc3c(C)cc(C)cc3C)n(CCNC(=O)c3ccnn(C)c3=O)c(=O)n1CC2 | log10 IC50 | -0.12

Given the entry COc1cc2c(cc1OC)-c1cc(=Nc3c(C)cc(C)cc3C)n(CCN3CCn4c(nnc4C(F)(F)F)C3)c(=O)n1CC2 , report its measured log10 IC50. 0.81

Given the entry CCOc1cc2c(cc1OC)-c1cc(=Nc3c(C)cc(C)cc3C)n(CCNC(=O)c3ccnc(Cl)c3)c(=O)n1CC2 , report its measured log10 IC50. 0.68

Given the entry COc1cc2c(cc1OC)C(C)Cn1c-2cc(=Nc2c(C)cc(C)cc2C)n(CCNC(N)=O)c1=O (centres unmarked) , report its measured log10 IC50. 0.75

Given the entry COc1cc2c(cc1OC)-c1cc(=Nc3c(C)cc(C)cc3C)n(CCNC(=O)c3cccn(C)c3=O)c(=O)n1CC2 , report its measured log10 IC50. -0.14

Given the entry COc1cc2c(cc1OC)-c1cc(=Nc3c(C)cc(C)cc3C)n(CCNC(=O)c3cccn(C4CC4)c3=O)c(=O)n1CC2 , report its measured log10 IC50. 0.06

Given the entry COc1cc2c(cc1OC)-c1cc(=Nc3c(C)cc(C)cc3C)n(CCNC(N)=O)c(=O)n1CCS2 , report its measured log10 IC50. 1.40

Given the entry CCOc1cc2c(cc1OC)-c1cc(=Nc3c(C)cc(C)cc3C)n(CCCN)c(=O)n1CC2 , report its measured log10 IC50. 0.48

Given the entry COc1cc2c(cc1OC)-c1cc(=Nc3c(C)cc(C)cc3C)n(CCNC(=O)N3CCOCC3CO)c(=O)n1CC2 (centres unmarked) , report its measured log10 IC50. 0.09

Given the entry COc1cc2c(cc1OC)-c1cc(=Nc3c(C)cc(C)cc3C)n(CCNC(=O)N3CCn4c(nnc4C(F)(F)F)C3)c(=O)n1CC2 , report its measured log10 IC50. 0.68

Given the entry CCOc1cc2c(cc1OC)CCn1c-2cc(=Nc2c(C)cc(C)cc2C)n(CCNC(N)=O)c1=O , report its measured log10 IC50. 0.87

Given the entry COc1cc2c(cc1OC)-c1cc(=Nc3c(C)cc(C)cc3F)n(CCNC(N)=O)c(=O)n1CC2 , report its measured log10 IC50. -0.19

Given the entry COc1cc2c(cc1OC)-c1cc(N(c3c(C)cc(C)cc3C)C3CN(C(N)=O)C3)nc(=O)n1CC2 , report its measured log10 IC50. -0.68

Given the entry COc1cc2c(cc1OC)-c1cc(=Nc3c(C)cc(C)cc3C)n(CCNC(=O)c3cnc4n3CCC4)c(=O)n1CC2 , report its measured log10 IC50. -0.05
